Recorded values, source ChEMBL document CHEMBL3507680.

Provide the reported cytotoxicity at 70.5 h of each item.
# Method: Human HepG2 cell viability assay in 384 well format
# Type: toxicity, cell-based
# Parameters: dose 125 nL, time 70.5 hour; concentration not given beside the values
# Condition details: HepG2 cells, read-out: Inhibition
Answer format: numeric, % implied, no suffix.

Data request: Give me measured cytotoxicity at 70.5 h, please, for this compound: COc1cc(CNCc2ccco2)ccc1OCCO
Data returned: -5.33

Data request: Give me measured cytotoxicity at 70.5 h, please, for this compound: O=C(Nc1cccc(CN2CCC(CO)CC2)c1)c1cc(Cl)c[nH]1
Data returned: 32.7

Data request: Give me measured cytotoxicity at 70.5 h, please, for this compound: CNc1ncc(CN(C)Cc2cc(O)c3cccc(Cl)c3n2)cn1
Data returned: -15.2

Data request: Give me measured cytotoxicity at 70.5 h, please, for this compound: CC(C)(C)c1cc(=O)n2c(n1)SCC(C(=O)NCc1cccs1)C2 (stereo not drawn)
Data returned: 0.387

Data request: Give me measured cytotoxicity at 70.5 h, please, for this compound: CC(C)(C)CC(=O)NS(=O)(=O)c1ccc(F)cc1C(F)(F)F
Data returned: -1.73

Data request: Give me measured cytotoxicity at 70.5 h, please, for this compound: CCC1CN(C(=O)c2cncc(C)c2)CCC(=O)N1Cc1ccccc1 (stereo not drawn)
Data returned: -3.22

Data request: Give me measured cytotoxicity at 70.5 h, please, for this compound: CN(Cc1ccccc1)C(=O)CCNc1ncccc1C#N
Data returned: -4.83

Data request: Give me measured cytotoxicity at 70.5 h, please, for this compound: CCc1nccn1CC(=O)Nc1cccc(N2CCCC2)c1
Data returned: 9.22

* * *

Provide the reported cytotoxicity at 70.5 h of each item.
# Method: Human HepG2 cell viability assay in 384 well format
# Assay type: toxicity, cell-based
# Set-up: dose 125 nL, time 70.5 hour; concentration not given beside the values
# Condition details: HepG2 cells, read-out: Inhibition
Answer format: numeric, % implied, no suffix.

Data request: Give me measured cytotoxicity at 70.5 h, please, for this molecule: Cn1ccnc1C1CCCN(C(=O)c2ccncc2F)C1 (stereo not given)
Data returned: -5.94

Data request: Give me measured cytotoxicity at 70.5 h, please, for this molecule: Cn1ccnc1C(=O)N1CCC2(CCN2Cc2ccc(F)cc2)C1 (stereo not given)
Data returned: -3.38

Data request: Give me measured cytotoxicity at 70.5 h, please, for this molecule: CC(C)CC(=O)N1CCC2(CC1)OCCO2
Data returned: -6.38

Data request: Give me measured cytotoxicity at 70.5 h, please, for this molecule: Cn1cccc(NC(=O)N2CCC(Cc3ccccc3)C2)c1=O (stereo not given)
Data returned: 19.7

Data request: Give me measured cytotoxicity at 70.5 h, please, for this molecule: CCc1oc(C(=O)NCCc2nc(C(=O)O)cs2)cc1CN1CCCC1
Data returned: -3.56

Data request: Give me measured cytotoxicity at 70.5 h, please, for this molecule: Cc1cc(C)n(CCC(=O)N2CCC(Nc3cccnn3)CC2)n1
Data returned: -12.8

Data request: Give me measured cytotoxicity at 70.5 h, please, for this molecule: CNC(=O)c1cccc(CN2CCN(C3=NCC(C)(C)S3)CC2)c1
Data returned: -5.92

Data request: Give me measured cytotoxicity at 70.5 h, please, for this molecule: COc1ccc(C(=O)N(Cc2cnn(C)c2)C(C)C)cc1OC(F)F
Data returned: -3.59

Data request: Give me measured cytotoxicity at 70.5 h, please, for this molecule: CCOC(=O)c1sc(NC(=O)CN(C)S(C)(=O)=O)c(C#N)c1C
Data returned: 26.2

Data request: Give me measured cytotoxicity at 70.5 h, please, for this molecule: COc1cc(C)nc(N2CCN(C(=O)CCc3nccs3)CC2)n1
Data returned: 9.16

Data request: Give me measured cytotoxicity at 70.5 h, please, for this molecule: Cc1n[nH]c(C2CN(C(=O)c3cc4c(s3)CCCC4)CCO2)n1 (stereo not given)
Data returned: -4.81

Data request: Give me measured cytotoxicity at 70.5 h, please, for this molecule: Cc1nc(NCC2CC2)nc2c1COCC21CCN(C(=O)NC(C)C)C1 (stereo not given)
Data returned: -5.59

Data request: Give me measured cytotoxicity at 70.5 h, please, for this molecule: CCOCc1ccccc1NC(=O)NCC(C)(O)c1ccsc1 (stereo not given)
Data returned: -2.17

Data request: Give me measured cytotoxicity at 70.5 h, please, for this molecule: COC(=O)[C@H](C)NC(=O)CSCc1nc2sc(C(C)C)cc2c(=O)[nH]1
Data returned: -9.3

Data request: Give me measured cytotoxicity at 70.5 h, please, for this molecule: Cc1nc(C)n(CC2CCCN2Cc2coc(-c3cccs3)n2)n1 (stereo not given)
Data returned: -115

Data request: Give me measured cytotoxicity at 70.5 h, please, for this molecule: Cc1n[nH]c(C2CN(C(=O)CCCn3cccn3)CCO2)n1 (stereo not given)
Data returned: -2.71

Data request: Give me measured cytotoxicity at 70.5 h, please, for this molecule: CN1N=C(C(=O)N2CCCN(c3ncccc3C#N)CC2)CCC1=O
Data returned: 3.72

Data request: Give me measured cytotoxicity at 70.5 h, please, for this molecule: Cc1scc(C(=O)N2CCC3(CC(=O)NC3=O)C2)c1-c1ccccc1 (stereo not given)
Data returned: -11

Data request: Give me measured cytotoxicity at 70.5 h, please, for this molecule: O=c1[nH]nc(-c2cccs2)c2sc(N3CCOCC3)nc12
Data returned: -4.15

Data request: Give me measured cytotoxicity at 70.5 h, please, for this molecule: CN1N=C(C(=O)N2CCCC(n3cccn3)C2)CCC1=O (stereo not given)
Data returned: -3.66

* * *

# Method: Human HepG2 cell viability assay in 384 well format
# Format: toxicity, cell-based
# Set-up: dose 125 nL, time 70.5 hour; concentration not given beside the values
# Condition details: HepG2 cells, read-out: Inhibition
Experimental endpoint: cytotoxicity at 70.5 h (%)
Answer format: numeric, % implied, no suffix.

Data request: Give me measured cytotoxicity at 70.5 h, please, for this compound: COCCCn1ccc(NC(=O)NCCc2cccnc2)n1
Data returned: -6.28

Data request: Give me measured cytotoxicity at 70.5 h, please, for this compound: Cc1cccn2cc(C[S+]([O-])Cc3noc(C(C)C)n3)nc12 (stereo not given)
Data returned: -1.76

Data request: Give me measured cytotoxicity at 70.5 h, please, for this compound: COC(=O)C(O)C1CCN(CCc2ccccn2)CC1 (stereo not given)
Data returned: -1.57

Data request: Give me measured cytotoxicity at 70.5 h, please, for this compound: Cc1ccnc(OC[C@]23COC[C@H]2CN(C(=O)c2ncccn2)C3)n1
Data returned: 21.2

Data request: Give me measured cytotoxicity at 70.5 h, please, for this compound: COc1ccccc1[C@@H]1CN(Cc2cnc(N(C)C)nc2)C[C@H]1C(=O)O
Data returned: -6.22

Data request: Give me measured cytotoxicity at 70.5 h, please, for this compound: NC(=O)CSCC(=O)NC1(c2cccc(Cl)c2)CC1
Data returned: 2.26

Data request: Give me measured cytotoxicity at 70.5 h, please, for this compound: CS(=O)(=O)NCCNCc1ccc(Br)s1
Data returned: 3.93

Data request: Give me measured cytotoxicity at 70.5 h, please, for this compound: CCOCc1ccc(CNc2cncc(-n3cccn3)n2)cc1
Data returned: 8.54

Data request: Give me measured cytotoxicity at 70.5 h, please, for this compound: CC1=N[C@@]2(CC[C@@H]3CN(CC4CC4)C[C@@H]32)C(=O)N1CC(C)C
Data returned: -15.3

Data request: Give me measured cytotoxicity at 70.5 h, please, for this compound: O=C(NCC1CCCO1)Nc1nnc(C(F)(F)F)s1 (stereo not given)
Data returned: -15.8

Data request: Give me measured cytotoxicity at 70.5 h, please, for this compound: Cc1nccn1CCCN1CCCC(c2nccn2CC2CCC2)C1 (stereo not given)
Data returned: -12.7

Data request: Give me measured cytotoxicity at 70.5 h, please, for this compound: CCN(Cc1ccncc1)C1CCN(c2ccccc2)C1=O (stereo not given)
Data returned: 1.49

Data request: Give me measured cytotoxicity at 70.5 h, please, for this compound: CC(C)Nc1ncnc2c1CCN(C(=O)NCc1cccc(F)c1)CC2
Data returned: -7.17

Data request: Give me measured cytotoxicity at 70.5 h, please, for this compound: CCc1nncn1CCNC(=O)Nc1ccc2c(c1)CCCO2
Data returned: 1.85

Data request: Give me measured cytotoxicity at 70.5 h, please, for this compound: c1cc2c(cc1C1(CNC3=NCCN3)CCCC1)OCCO2
Data returned: -3.87

Data request: Give me measured cytotoxicity at 70.5 h, please, for this compound: O=S(=O)(c1cccc(F)c1)N1C[C@@H]2COC[C@]2(COCC2CC2)C1
Data returned: 4.21

Data request: Give me measured cytotoxicity at 70.5 h, please, for this compound: Cc1cnn(CC2CCCN2Cc2cc(=O)n3cccc(C)c3n2)c1 (stereo not given)
Data returned: -7.45

Data request: Give me measured cytotoxicity at 70.5 h, please, for this compound: COc1ccc(COCC(O)CNC(=O)c2ccc(C)c(F)c2)cc1 (stereo not given)
Data returned: -1.89

Data request: Give me measured cytotoxicity at 70.5 h, please, for this compound: COc1ccc(Oc2cc(CN)ccn2)cc1
Data returned: 2.32

Data request: Give me measured cytotoxicity at 70.5 h, please, for this compound: CCc1nc(C2CCCN(c3nccc(N4CCCC4)n3)C2)no1 (stereo not given)
Data returned: -0.206

Data request: Give me measured cytotoxicity at 70.5 h, please, for this compound: COc1ccnc(CN(C)C(=O)CSc2nnc(N)s2)c1
Data returned: -5.2

Data request: Give me measured cytotoxicity at 70.5 h, please, for this compound: O=C(NCCCOCC1CCCO1)c1cccnc1N1CCCC1 (stereo not given)
Data returned: 1.79

Data request: Give me measured cytotoxicity at 70.5 h, please, for this compound: COC(=O)C1CN(Cc2ccn(-c3ccc(F)cc3)n2)CCO1 (stereo not given)
Data returned: 5.92

Data request: Give me measured cytotoxicity at 70.5 h, please, for this compound: CCN(Cc1ccc(C(C)C)cc1)C(=O)c1csc(CN(C)C)n1
Data returned: 7.36

Data request: Give me measured cytotoxicity at 70.5 h, please, for this compound: Cc1ccc(NC(=O)CNc2cccc3c2CCCC3)c(Br)c1
Data returned: -8.9
